target-or-test-system: T1, Anti-CD28 Fab (SEQ ID NOs: 696, 697)
T1 construct: Biotinylated and captured on neutravidin coated plates in the phage ELISA
T1 sequence (VH, as listed by the source, chain 1 of 2): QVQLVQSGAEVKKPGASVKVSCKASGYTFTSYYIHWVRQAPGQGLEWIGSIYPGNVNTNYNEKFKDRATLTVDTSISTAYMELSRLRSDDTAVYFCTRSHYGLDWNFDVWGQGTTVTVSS
T1 sequence (VL, as listed by the source, chain 2 of 2): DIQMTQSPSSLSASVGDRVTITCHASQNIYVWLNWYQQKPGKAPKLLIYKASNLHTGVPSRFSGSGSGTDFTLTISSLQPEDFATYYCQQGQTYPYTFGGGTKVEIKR
method-notes: phage ELISA on captured anti-CD28 Fab, wells pre-incubated with CD28 antigen as competitor;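 also: crude clonal phage supernatants added without washing, bound phage read out by HRP-coupled anti-M13 antibody, reference wells given blocking buffer only instead of CD28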
So I've got a bunch of binders here, and I need their Anti-CD28 Fab signal in the presence of CD28 (phage binding ELISA) values.
# output: bare number, no unit

**Q:** Look at this binder and give its reported Anti-CD28 Fab signal in the presence of CD28 (phage binding ELISA). YCEGHHRIYMQKCL [Phage-1131]
**A:** 0.07

**Q:** Which Anti-CD28 Fab signal in the presence of CD28 (phage binding ELISA) value is on record for YCDGHVEEYMTKCL [Phage-1141] ?
**A:** 0.07

**Q:** Entry YCDGHSEQYMAKCL [Phage-1137] has what Anti-CD28 Fab signal in the presence of CD28 (phage binding ELISA)?
**A:** 0.06

**Q:** Item under review: YCAGLFEEYMSKCL [Phage-1135] . Reported Anti-CD28 Fab signal in the presence of CD28 (phage binding ELISA)?
**A:** 0.06

**Q:** // returns reported Anti-CD28 Fab signal in the presence of CD28 (phage binding ELISA) for input YCDGHLEQYMLKCL [Phage-1142]
**A:** 0.09

**Q:** What value of measured Anti-CD28 Fab signal in the presence of CD28 (phage binding ELISA) is listed for YCEGHLAEYMNKCL [Phage-1140] ?
**A:** 0.07

**Q:** # get_value(readout='Anti-CD28 Fab signal in the presence of CD28 (phage binding ELISA)', item= YCAGHTAEYMAKCL [Phage-1139] )
**A:** 0.08

**Q:** Look at this binder and give its reported Anti-CD28 Fab signal in the presence of CD28 (phage binding ELISA). YCEGHMSIYMQKCL [Phage-1133]
**A:** 0.07
